Sourced from ChEMBL document CHEMBL4177696

Tested on: Staphylococcus aureus
Experiment: Antibacterial activity against Staphylococcus aureus measured after 24 hrs
Assay type: functional
Measurement label: MIC (µg/mL)

COC(=O)[C@]1(C)CCC[C@]2(C)c3ccc(C(C)C)c(NC(=O)Cn4cc(-c5ccc(C(F)(F)F)cc5)nn4)c3CC[C@@H]12
25
COC(=O)C1=C[C@@H]2CCc3c(ccc(C(C)C)c3OC)[C@@]2(C)CC1
50
COc1cccc2c1CC[C@H]1[C@@H](CO)[C@H](O[Si](C)(C)C(C)(C)C)CC[C@]21C
100

(a) COC(=O)[C@]1(C)CCC[C@@]2(C)[C@H]1CC=C1C(=O)[C@@](O)(C(C)C)CC[C@@H]12
(b) COC(=O)[C@]1(C)CCC[C@]2(C)c3ccc(C(C)C)c(NC(=O)Cn4cc(-c5cc(OC)cc(OC)c5)nn4)c3CC[C@@H]12
[in] Given a and b , report the one with the higher recorded MIC. In your reply, give the label of the chosen option.
[out] a
(a: 75 µg/mL, b: 25 µg/mL)

(a) COC(=O)[C@]1(C)CCC[C@]2(C)c3ccc(C(C)C)c(NC(=O)Cn4cc(-c5ccc([N+](=O)[O-])cc5)nn4)c3CC[C@@H]12
(b) COc1c(C(C)C)ccc2c1[C@H](O)C=C1C3=C(CCC12C)C(=O)OC3 (single isomer, unassigned)
[in] Given a and b , report the one with the higher recorded MIC. In your reply, give the label of the chosen option.
[out] a
